Exercise: for every item that follows, state its recorded IC50.
test target: EGFR L858R/T790M/C797S (LR/TM/CS) (Homo sapiens, UniProt P00533, C797S/L858R/T790M)
Construct: purchased BPS Bioscience
Sequence (P00533 25-1210 T790M/C797S/L858R): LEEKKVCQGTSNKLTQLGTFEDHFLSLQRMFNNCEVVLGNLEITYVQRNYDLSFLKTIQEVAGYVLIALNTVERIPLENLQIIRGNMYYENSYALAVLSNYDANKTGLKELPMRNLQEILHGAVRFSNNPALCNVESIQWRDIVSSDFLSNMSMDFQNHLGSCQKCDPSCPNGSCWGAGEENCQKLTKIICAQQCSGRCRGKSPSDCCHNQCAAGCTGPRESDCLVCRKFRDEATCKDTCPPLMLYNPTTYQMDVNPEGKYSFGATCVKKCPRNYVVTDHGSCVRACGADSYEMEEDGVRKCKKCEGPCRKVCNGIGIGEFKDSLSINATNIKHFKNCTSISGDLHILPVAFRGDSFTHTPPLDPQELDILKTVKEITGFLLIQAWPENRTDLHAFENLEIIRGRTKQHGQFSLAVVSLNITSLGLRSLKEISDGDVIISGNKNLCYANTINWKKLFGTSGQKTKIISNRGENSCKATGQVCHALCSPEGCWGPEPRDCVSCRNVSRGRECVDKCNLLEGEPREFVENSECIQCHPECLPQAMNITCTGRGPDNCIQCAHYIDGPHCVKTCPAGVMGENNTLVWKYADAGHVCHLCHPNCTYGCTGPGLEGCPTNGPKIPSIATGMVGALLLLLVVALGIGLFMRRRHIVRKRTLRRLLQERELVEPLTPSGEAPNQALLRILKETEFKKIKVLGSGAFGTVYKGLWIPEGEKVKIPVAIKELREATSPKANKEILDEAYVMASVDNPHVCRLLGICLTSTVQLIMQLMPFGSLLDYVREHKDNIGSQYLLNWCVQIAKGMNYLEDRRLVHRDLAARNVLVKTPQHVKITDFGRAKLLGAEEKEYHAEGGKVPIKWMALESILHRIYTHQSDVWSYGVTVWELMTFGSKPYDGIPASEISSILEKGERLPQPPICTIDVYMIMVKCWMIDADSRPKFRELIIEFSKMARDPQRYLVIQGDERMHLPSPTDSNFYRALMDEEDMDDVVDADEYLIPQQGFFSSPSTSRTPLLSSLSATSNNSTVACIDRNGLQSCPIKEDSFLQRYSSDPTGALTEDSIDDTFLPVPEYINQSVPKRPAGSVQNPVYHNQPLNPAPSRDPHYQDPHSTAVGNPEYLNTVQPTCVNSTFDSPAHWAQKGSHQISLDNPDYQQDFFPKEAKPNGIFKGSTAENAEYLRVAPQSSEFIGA
measurement description: ELISA kinase activity detection, EGFR triple mutant
Assay type: biochemical
condition details: ELISA-based EGFR-TK assay, ATP 5 μM, mean ± SD
Numbers only, in nM.

{"columns": ["molecule", "unit spec", "result number"],
 "data": [
  ["COc1cc2c(Nc3ccc(NC(=O)C(c4ccccc4)c4ccccc4)cc3F)ncnc2cc1OCC1CCN(C)CC1", "nM", 1300]
]}

For the 7 molecules below, give their IC50 values.
1. COc1cc2ncnc(Nc3ccc(NC(=O)C(c4ccccc4)N4Cc5ccccc5C4=O)cc3F)c2cc1OCN1CCN(C)CC1 (stereo not drawn)
2. COc1cc2c(Nc3ccc(NC(=O)C(c4ccccc4)N4Cc5ccccc5C4=O)cc3F)ncnc2cc1OCC1CCN(C)CC1 (stereo not drawn)
3. COCCOc1cc2ncnc(Nc3ccc(NC(=O)C(c4ccccc4)N4Cc5ccccc5C4=O)cc3F)c2cc1OCCOC (stereo not drawn)
4. COc1cc2c(Nc3ccc(NC(=O)C(c4ccccc4)C(C)C)cc3F)ncnc2cc1OCC1CCN(C)CC1 (stereo not drawn)
5. COc1cc2c(Nc3ccc(OCc4ccccc4)cc3)ncnc2cc1OCC1CCN(C)CC1
6. COc1cc2c(Nc3ccc(NC(=O)C(c4cc(F)ccc4F)N4Cc5ccccc5C4=O)cc3F)ncnc2cc1OCC1CCN(C)CC1 (stereo not drawn)
7. COc1cc2c(Nc3ccc(NC(=O)C(C4CCCCC4)N4Cc5ccccc5C4=O)cc3F)ncnc2cc1OCC1CCN(C)CC1 (stereo not drawn)

*A*
1: 19.1; 2: 14.5; 3: 8.5; 4: 3190; 5: 5570; 6: 27.5; 7: 361

*Q* Lab request: please report IC50 under test system EGFR L858R/T790M/C797S (LR/TM/CS) (Homo sapiens, UniProt P00533, C797S/L858R/T790M) for COc1cc2c(Nc3ccc(NC(=O)C(C)c4ccccc4)cc3F)ncnc2cc1OCC1CCN(C)CC1 (stereo not drawn)
*A* 4810

###

test target: EGFR L858R/T790M (LR/TM) (Homo sapiens, UniProt P00533, L858R/T790M)
Sequence (P00533 25-1210 T790M/L858R): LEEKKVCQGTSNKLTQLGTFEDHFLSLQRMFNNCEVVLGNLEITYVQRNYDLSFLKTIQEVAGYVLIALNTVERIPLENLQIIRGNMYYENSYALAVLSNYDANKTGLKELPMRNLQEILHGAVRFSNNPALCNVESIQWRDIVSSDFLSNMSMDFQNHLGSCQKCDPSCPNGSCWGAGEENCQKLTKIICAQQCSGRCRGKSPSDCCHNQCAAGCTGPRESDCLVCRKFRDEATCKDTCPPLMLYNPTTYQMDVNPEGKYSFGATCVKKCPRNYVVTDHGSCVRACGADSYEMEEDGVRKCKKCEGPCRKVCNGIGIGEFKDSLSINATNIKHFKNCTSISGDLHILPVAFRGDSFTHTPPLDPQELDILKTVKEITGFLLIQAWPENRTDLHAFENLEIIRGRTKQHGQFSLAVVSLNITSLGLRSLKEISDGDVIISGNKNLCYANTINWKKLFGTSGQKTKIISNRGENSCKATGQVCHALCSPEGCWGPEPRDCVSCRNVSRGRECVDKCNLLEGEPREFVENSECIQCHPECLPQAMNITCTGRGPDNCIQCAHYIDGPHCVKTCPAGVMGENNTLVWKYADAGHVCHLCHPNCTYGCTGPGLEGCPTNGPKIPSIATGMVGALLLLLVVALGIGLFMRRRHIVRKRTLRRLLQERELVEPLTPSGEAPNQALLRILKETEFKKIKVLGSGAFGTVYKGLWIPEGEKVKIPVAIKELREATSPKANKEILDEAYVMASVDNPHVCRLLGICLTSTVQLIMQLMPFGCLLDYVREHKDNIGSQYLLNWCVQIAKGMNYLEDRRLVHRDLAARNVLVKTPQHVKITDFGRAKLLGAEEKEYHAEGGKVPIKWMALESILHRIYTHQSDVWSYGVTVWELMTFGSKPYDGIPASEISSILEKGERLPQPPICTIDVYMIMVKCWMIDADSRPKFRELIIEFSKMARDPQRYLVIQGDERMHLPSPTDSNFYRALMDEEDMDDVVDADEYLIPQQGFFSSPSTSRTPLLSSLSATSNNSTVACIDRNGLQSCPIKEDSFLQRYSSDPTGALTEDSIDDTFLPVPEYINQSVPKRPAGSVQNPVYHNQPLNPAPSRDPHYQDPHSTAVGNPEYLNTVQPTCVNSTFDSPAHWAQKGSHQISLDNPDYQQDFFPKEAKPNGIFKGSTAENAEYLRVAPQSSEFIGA
measurement description: ELISA kinase activity detection, EGFR double mutant
Format: biochemical
condition details: ELISA-based EGFR-TK assay, ATP 5 μM, mean ± SD
readout name: IC50 (nM)
Give bare numbers, in nM.

A selection of reference data follows.
{"columns": ["compound", "readout name", "result number"],
 "data": [
  ["COc1cc2ncnc(Nc3ccc(NC(=O)C(c4ccccc4)N4Cc5ccccc5C4=O)cc3F)c2cc1OCC1CCN(C)CC1 (stereo not drawn) [Example 23]", "IC50", 2.4],
  ["COc1cc2ncnc(Nc3ccc(NC(=O)C(c4ccccc4)N4Cc5ccccc5C4=O)cc3F)c2cc1OCCCN1CCOCC1 (stereo not drawn) [Example 25]", "IC50", 7.3]
]}

Shifting focus to the compound that follows.
*Q* Record request: IC50 value, item COc1cc2c(Nc3ccc(NC(=O)C(C4CCCCC4)N4Cc5ccccc5C4=O)cc3F)ncnc2cc1OCC1CCN(C)CC1 (stereo not drawn) [Example 21]
*A* 180

###

test target: EGFR L858R/T790M/C797S (LR/TM/CS) (Homo sapiens, UniProt P00533, C797S/L858R/T790M)
Construct: purchased BPS Bioscience
measurement description: ELISA kinase activity detection, EGFR triple mutant
Assay type: biochemical
condition details: ELISA-based EGFR-TK assay, ATP 5 μM, mean ± SD
readout name: IC50 (nM)
Give bare numbers, in nM.

Solved cases (4 shown):
{"columns": ["molecule", "IC50 / nM"],
 "data": [
  ["COc1cc2ncnc(Nc3ccc(NC(=O)C(c4ccccc4)N4Cc5ccccc5C4=O)cc3F)c2cc1OCCCN1CCOCC1 (stereo not shown)", 97.5],
  ["COc1cc2c(Nc3ccc(NC(=O)[C@H](c4ccccc4)N4Cc5ccccc5C4=O)cc3F)ncnc2cc1OCC1CCN(C)CC1", 7.9],
  ["COc1cc2ncnc(Nc3ccc(NC(=O)C(c4ccccc4)N4Cc5ccccc5C4=O)cc3F)c2cc1OCC1CCN(C)CC1 (stereo not shown)", 18],
  ["CN1CCC(COc2ccc3c(Nc4ccccc4P(C)(C)=O)ncnc3c2)CC1", 9510]
]}

*Q* Write down the reported IC50 of COc1cc2c(Nc3cc(NC(=O)C(c4ccccc4)N4Cc5ccccc5C4=O)ccc3F)ncnc2cc1OCC1CCN(C)CC1 (stereo not shown) , test system: EGFR L858R/T790M/C797S (LR/TM/CS) (Homo sapiens, UniProt P00533, C797S/L858R/T790M).
*A* 14.5
